Values compiled from patent US12281162.

Target: T1, human G-protein-coupled receptor family C group 5 member D (GPRC5D) (human, UniProt Q9NZD1 1-345)
T1 construct: whole, on cells; also called human GPRC5D protein
T1 sequence (Q9NZD1 whole entry): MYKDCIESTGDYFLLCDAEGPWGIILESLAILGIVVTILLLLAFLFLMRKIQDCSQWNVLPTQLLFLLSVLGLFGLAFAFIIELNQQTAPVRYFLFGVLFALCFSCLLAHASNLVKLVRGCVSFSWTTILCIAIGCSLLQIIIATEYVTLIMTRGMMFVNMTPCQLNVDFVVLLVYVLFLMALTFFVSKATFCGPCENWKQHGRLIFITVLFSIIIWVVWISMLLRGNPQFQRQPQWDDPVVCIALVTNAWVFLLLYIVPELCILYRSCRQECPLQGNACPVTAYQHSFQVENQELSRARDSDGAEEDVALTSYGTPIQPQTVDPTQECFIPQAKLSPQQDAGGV
Experiment: FACS, CHO-K1/GPRC5D
readout-name: Span
One number for each entry.

Some binders with known Span results, for comparison:
Query string: Using the record for 58-H1L1 (antibody, V domains shown, humanized 58F9G10, VH v1 x VL v1) VH: QVQLVQSGAEVKKPGASVKVSCKASGYSFTGYYIHWVRQAPGQGLEWMGYISSYNAATSFNQKFKGRVTMTRDTSTSTVYMELSSLRSEDTAVYYCARTELRGPWFAYWGQGTLVTVSS VL: DIQMTQSPSSLSASVGDRVTITCSASSSVSYMNWYQQKPGKAPKLLIYDTSKLASGVPSRFSGSGSGTDFTLTISSLQPEDFATYYCQQWSNNPLTFGQGTKLEIK , report its Span.
Result string: 92800

Query string: What value of Span has been reported for the following binder? 58-H2L2 (antibody, V domains shown, humanized 58F9G10, VH v2 x VL v2) VH: QVQLVQSGAEVKKPGASVKVSCKASGYSFTGYYIHWVRQAPGQGLEWIGYISSYNAATSFNQKFKGRVTFTVDTSTSTVYMELSSLRSEDTAVYYCARTELRGPWFAYWGQGTLVTVSS VL: DTQMTQSPSSLSASVGDRVTITCSASSSVSYMNWYQQKPGKAPKRLIYDTSKLASGVPSRFSGSGSGTDYTLTISSLQPEDFATYYCQQWSNNPLTFGQGTKLEIK
Result string: 103000

Query string: Form field: reported Span of 58-H3L2 (antibody, V domains shown, humanized 58F9G10, VH v3 x VL v2) VH: QVQLVQSGAEVKKPGASVKVSCKASGYSFTGYYIHWVKQAPGQGLEWIGYISSYNAATSFNQKFKGRVTFTVDTSTSTVYMEFSSLRSEDTAVYYCARTELRGPWFAYWGQGTLVTVSS VL: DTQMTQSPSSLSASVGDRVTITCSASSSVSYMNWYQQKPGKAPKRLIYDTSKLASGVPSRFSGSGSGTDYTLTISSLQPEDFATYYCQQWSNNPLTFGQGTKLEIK
Result string: 99500

// each binder listed below needs its Span
1. 58-H3L3 (antibody, V domains shown, humanized 58F9G10, VH v3 x VL v3) VH: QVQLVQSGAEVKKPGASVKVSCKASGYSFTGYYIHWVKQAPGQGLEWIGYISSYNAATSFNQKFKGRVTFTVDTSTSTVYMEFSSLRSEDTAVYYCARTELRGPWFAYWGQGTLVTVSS VL: DTQLTQSPSSLSASVGDRVTMTCSASSSVSYMNWYQQKPGKAPKRLIYDTSKLASGVPSRFSGSGSGTDYTLTISSMQPEDFATYYCQQWSNNPLTFGQGTKLEIK
2. 58-H4L2 (antibody, V domains shown, humanized 58F9G10, VH v4 x VL v2) VH: QVQLVQSGAEVKKPGASVKISCKASGYSFTGYYIHWVKQAPGQGLEWIGYISSYNAATSFNQKFKGRATFTVDTSTSTAYMEFSSLRSEDSAVYYCARTELRGPWFAYWGQGTLVTVSS VL: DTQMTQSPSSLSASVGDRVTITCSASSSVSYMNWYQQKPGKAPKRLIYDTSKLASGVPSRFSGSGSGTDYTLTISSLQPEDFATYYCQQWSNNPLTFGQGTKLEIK

Result string:
1: 93700; 2: 100000
